methodNotes: clinical
experimentalParameters: human, in vivo, po, F
reportedEndpoint: bioavailability

CC1CCCC(C)N1CCCC(O)(c1ccccc1)c1ccccn1 (stereo not given) ... ≥ 80%

Recorded bioavailability (molecule CC(C)NCC(O)c1cc(O)cc(O)c1 (stereo not given) ): < 20%

Recorded bioavailability (molecule NC(=O)N1c2ccccc2C=Cc2ccccc21 [CARBAMAZEPINE] ): ≥ 80%

Recorded bioavailability (molecule N#Cc1ccccc1OCC(O)CNCCNC(=O)Cc1ccc(O)cc1 (stereo not given) ): ≤ 20%

Recorded bioavailability (molecule COc1ccc2cc(CCC(C)=O)ccc2c1 ): ≤ 20%

###

Examples of molecules with documented logD follow.
methodNotes: physchem
experimentalParameters: octanol/water, pH 6.5
API note: the answer field is a bare number with no unit suffix.

C[C@H](CS)C(=O)N1C[C@@H](Sc2ccccc2)C[C@H]1C(=O)O [ZOFENOPRILAT] ... -0.64
CC(C)NC[C@H](O)COc1ccc(O)cc1 [PRENALTEROL] ... -1.61

Please look at the following molecule next.
Recorded logD (molecule CC(C)(C)NCC(O)COc1cccc2c1CCCC2=O (stereo not drawn) [BUNOLOL] ): -0.4

###

methodNotes: physchem
experimentalParameters: octanol/water, pH 6.5
Examples of compounds with documented logD follow.
API note: the answer field is a bare number with no unit suffix.

Recorded logD (compound O=C(c1ccccc1)c1ccc2n1CCC2C(=O)O (stereo unspecified) [KETOROLAC] ): -1.34

Recorded logD (compound Cc1c(OCC(F)(F)F)ccnc1C[S+]([O-])c1nc2ccccc2[nH]1 (stereo unspecified) [LANSOPRAZOLE] ): 1.73

Recorded logD (compound C=CCc1ccccc1OCC(O)CNC(C)C (stereo unspecified) [ALPRENOLOL] ): 0.4

###

Examples of compounds with documented bioavailability follow.
methodNotes: clinical
experimentalParameters: human, in vivo, po, F

The following compounds have reported results that may help.
O=C1CN(/N=C/c2ccc([N+](=O)[O-])o2)C(=O)N1 ... > 80%
Clc1cccc(Cl)c1N=C1NCCN1 ... > 80%
CCO ... > 80%
O=c1ccc2ccccc2o1 ... < 20%
CN(C)CC(Oc1ccccc1)Oc1ccccc1 ... 49%

Recorded bioavailability (compound CNS(=O)(=O)Cc1ccc2[nH]cc(CCN(C)C)c2c1 ): < 20%

Recorded bioavailability (compound CCC1(c2ccccc2)C(=O)NCNC1=O ): > 80%

Recorded bioavailability (compound O=C(NCCNCC(O)COc1ccc(O)cc1)N1CCOCC1 (configuration not stated) ): ≤ 20%

Recorded bioavailability (compound COCCc1ccc(OCC(O)CNC(C)C)cc1 (configuration not stated) ): 49%

Recorded bioavailability (compound O=C1OC(c2ccc(O)cc2)(c2ccc(O)cc2)c2ccccc21 ): ≤ 20%

Recorded bioavailability (compound CN1CCN2c3ccccc3Cc3ccccc3C2C1 (configuration not stated) ): 49%

Recorded bioavailability (compound C1COC(NC(C2CC2)C2CC2)=N1 ): ≥ 80%

###

experimentalParameters: octanol/water
reportedEndpoint: delta logD
API note: the answer field is a bare number with no unit suffix.

The following compounds have reported results that may help.
C#C[C@]1(O)CC[C@H]2[C@@H]3CCC4=CC(=O)CC[C@@H]4[C@H]3CC[C@@]21C [NORETHINDRONE] ... 0
CC(CCc1ccc(O)cc1)NCCc1ccc(O)c(O)c1 (centres undefined) [DOBUTAMINE] ... -0.9

Recorded delta logD (compound CC(C)(C)NC(=O)C1CC[C@H]2[C@]3(C)CC[C@H]4NC(=O)C=C[C@]4(C)[C@H]3CC[C@]12C (some centres undefined) ): 0

Recorded delta logD (compound CO/C(O)=C1\C(C)=NC(C)=C(C(=O)OCC(C)C)C1c1ccccc1[N+](=O)[O-] (centres undefined) ): 0
